Please respond with reported MIC for every item in the list.
- Test system: Staphylococcus aureus X400
- experiment_summary: agar-dilution MIC
- Format: cell-based
The response must be a number in µg/mL with no trailing unit.

Input: Look up MIC for this molecule: CC(C)C[C@H](C(=O)N[C@H]1C(=O)N[C@@H](CC(N)=O)C(=O)N[C@H]2C(=O)N[C@H]3C(=O)N[C@H](C(=O)N[C@H](C(=O)O)c4cc(O)cc(O)c4-c4cc3ccc4O)[C@H](O)c3ccc(c(Cl)c3)Oc3cc2cc(c3O[C@@H]2O[C@H](CO)[C@@H](O)[C@H](O)[C@H]2O[C@H]2C[C@](C)(NC(=O)CSc3ccccc3)[C@H](O)[C@H](C)O2)Oc2ccc(cc2Cl)[C@H]1O)N(C)C(=O)CSc1ccccc1
Output: 32

Input: Look up MIC for this molecule: CCCCCCCCOc1ccc(C(=O)N[C@@]2(C)C[C@H](O[C@H]3[C@H](Oc4c5cc6cc4Oc4ccc(cc4Cl)[C@@H](O)[C@@H](NC(=O)[C@@H](CC(C)C)NC)C(=O)N[C@@H](CC(N)=O)C(=O)N[C@H]6C(=O)N[C@H]4C(=O)N[C@H](C(=O)N[C@H](C(=O)O)c6cc(O)cc(O)c6-c6cc4ccc6O)[C@H](O)c4ccc(c(Cl)c4)O5)O[C@H](CO)[C@@H](O)[C@@H]3O)O[C@@H](C)[C@H]2O)cc1
Output: 2

Input: Look up MIC for this molecule: CCCCCCCCc1ccc(C(=O)N(C)C(CC(C)C)C(=O)NC2C(=O)NC(CC(N)=O)C(=O)NC3C(=O)NC4C(=O)NC(C(=O)NC(C(=O)O)c5cc(O)cc(O)c5-c5cc4ccc5O)C(O)c4ccc(c(Cl)c4)Oc4cc3cc(c4OC3OC(CO)C(O)C(O)C3OC3CC(C)(N)C(O)C(C)O3)Oc3ccc(cc3Cl)C2O)cc1 (stereo not shown) [Compound 3, N^leu --[4-(n-octyl)benzoyl]vancomycin]
Output: 2

Input: Look up MIC for this molecule: CCCCCCCCc1ccc(C(=O)N[C@@]2(C)C[C@H](O[C@H]3[C@H](Oc4c5cc6cc4Oc4ccc(cc4Cl)[C@@H](O)[C@@H](NC(=O)[C@@H](CC(C)C)NC)C(=O)N[C@@H](CC(N)=O)C(=O)N[C@H]6C(=O)N[C@H]4C(=O)N[C@H](C(=O)N[C@H](C(=O)O)c6cc(O)cc(O)c6-c6cc4ccc6O)[C@H](O)c4ccc(c(Cl)c4)O5)O[C@H](CO)[C@@H](O)[C@@H]3O)O[C@@H](C)[C@H]2O)cc1 [Compound 2, N^van --[4-(n-octyl)benzoyl]vancomycin]
Output: 0.5

###

- System: Haemophilus influenzae C.L.
- experiment_summary: agar-dilution MIC
- Type: cell-based
experimental_endpoint: MIC (µg/mL)
The response must be a number in µg/mL with no trailing unit.

Input: Look up MIC for this compound: CN[C@H](CC(C)C)C(=O)N[C@H]1C(=O)N[C@@H](CC(N)=O)C(=O)N[C@H]2C(=O)N[C@H]3C(=O)N[C@H](C(=O)N[C@H](C(=O)O)c4cc(O)cc(O)c4-c4cc3ccc4O)[C@H](O)c3ccc(c(Cl)c3)Oc3cc2cc(c3O[C@@H]2O[C@H](CO)[C@@H](O)[C@H](O)[C@H]2O[C@H]2C[C@](C)(NC(=O)c3ccc(OC)cc3)[C@H](O)[C@H](C)O2)Oc2ccc(cc2Cl)[C@H]1O
Output: 128

###

- Tested on: Streptococcus pneumoniae Park 1
- Type: cell-based
- conditions_used: agar dilution
experimental_endpoint: MIC (µg/mL)
The response must be a number in µg/mL with no trailing unit.

Input: Look up MIC for this compound: CCCCCCCCc1ccc(C(=O)N[C@@]2(C)C[C@H](O[C@H]3[C@H](Oc4c5cc6cc4Oc4ccc(cc4Cl)[C@@H](O)[C@@H](NC(=O)[C@@H](CC(C)C)NC)C(=O)N[C@@H](CC(N)=O)C(=O)N[C@H]6C(=O)N[C@H]4C(=O)N[C@H](C(=O)N[C@H](C(=O)O)c6cc(O)cc(O)c6-c6cc4ccc6O)[C@H](O)c4ccc(c(Cl)c4)O5)O[C@H](CO)[C@@H](O)[C@@H]3O)O[C@@H](C)[C@H]2O)cc1 [Compound 2, N^van --[4-(n-octyl)benzoyl]vancomycin]
Output: 0.5

Input: Look up MIC for this compound: CCCCCCCCc1ccc(C(=O)N(C)C(CC(C)C)C(=O)NC2C(=O)NC(CC(N)=O)C(=O)NC3C(=O)NC4C(=O)NC(C(=O)NC(C(=O)O)c5cc(O)cc(O)c5-c5cc4ccc5O)C(O)c4ccc(c(Cl)c4)Oc4cc3cc(c4OC3OC(CO)C(O)C(O)C3OC3CC(C)(N)C(O)C(C)O3)Oc3ccc(cc3Cl)C2O)cc1 (stereo not drawn) [Compound 3, N^leu --[4-(n-octyl)benzoyl]vancomycin]
Output: 1

Input: Look up MIC for this compound: CN[C@H](CC(C)C)C(=O)N[C@H]1C(=O)N[C@@H](CC(N)=O)C(=O)N[C@H]2C(=O)N[C@H]3C(=O)N[C@H](C(=O)N[C@H](C(=O)O)c4cc(O)cc(O)c4-c4cc3ccc4O)[C@H](O)c3ccc(c(Cl)c3)Oc3cc2cc(c3O[C@@H]2O[C@H](CO)[C@@H](O)[C@H](O)[C@H]2O[C@H]2C[C@](C)(NC(=O)CC(C)Oc3ccccc3)[C@H](O)[C@H](C)O2)Oc2ccc(cc2Cl)[C@H]1O (stereo partly drawn) [Compound 6]
Output: 1

###

- System: Streptococcus faecium ATCC 9790
- experiment_summary: agar-dilution MIC
- Assay type: cell-based
experimental_endpoint: MIC (µg/mL)
The response must be a number in µg/mL with no trailing unit.

Input: Look up MIC for this compound: CN[C@H](CC(C)C)C(=O)N[C@H]1C(=O)N[C@@H](CC(N)=O)C(=O)N[C@H]2C(=O)N[C@H]3C(=O)N[C@H](C(=O)N[C@H](C(=O)O)c4cc(O)cc(O)c4-c4cc3ccc4O)[C@H](O)c3ccc(c(Cl)c3)Oc3cc2cc(c3O[C@@H]2O[C@H](CO)[C@@H](O)[C@H](O)[C@H]2O[C@H]2C[C@](C)(NC(=O)c3ccc(OC)cc3)[C@H](O)[C@H](C)O2)Oc2ccc(cc2Cl)[C@H]1O [Compound 4, N^van --(4-methoxybenzoyl)vancomycin]
Output: 2

###

- System: Haemophilus influenzae C.L.
- experiment_summary: agar-dilution MIC
- Assay type: cell-based
experimental_endpoint: MIC

Input: Look up MIC for this compound: CCCCCCCCc1ccc(C(=O)N(C)C(CC(C)C)C(=O)NC2C(=O)NC(CC(N)=O)C(=O)NC3C(=O)NC4C(=O)NC(C(=O)NC(C(=O)O)c5cc(O)cc(O)c5-c5cc4ccc5O)C(O)c4ccc(c(Cl)c4)Oc4cc3cc(c4OC3OC(CO)C(O)C(O)C3OC3CC(C)(N)C(O)C(C)O3)Oc3ccc(cc3Cl)C2O)cc1 (centres unmarked) [Compound 3, N^leu --[4-(n-octyl)benzoyl]vancomycin]
Output: 128 µg/mL

###

Please respond with reported MIC for every item in the list.
- Tested on: Streptococcus faecium ATCC 9790
- experiment_summary: agar-dilution MIC
- Type: cell-based
The response must be a number in µg/mL with no trailing unit.

Input: Look up MIC for this compound: CN[C@H](CC(C)C)C(=O)N[C@H]1C(=O)N[C@@H](CC(N)=O)C(=O)N[C@H]2C(=O)N[C@H]3C(=O)N[C@H](C(=O)N[C@H](C(=O)O)c4cc(O)cc(O)c4-c4cc3ccc4O)[C@H](O)c3ccc(c(Cl)c3)Oc3cc2cc(c3O[C@@H]2O[C@H](CO)[C@@H](O)[C@H](O)[C@H]2O[C@H]2C[C@](C)(NC(=O)CC(C)Oc3ccccc3)[C@H](O)[C@H](C)O2)Oc2ccc(cc2Cl)[C@H]1O (some centres unmarked)
Output: 2

Input: Look up MIC for this compound: CCCCCCCCOc1ccc(C(=O)N[C@@]2(C)C[C@H](O[C@H]3[C@H](Oc4c5cc6cc4Oc4ccc(cc4Cl)[C@@H](O)[C@@H](NC(=O)[C@@H](CC(C)C)NC)C(=O)N[C@@H](CC(N)=O)C(=O)N[C@H]6C(=O)N[C@H]4C(=O)N[C@H](C(=O)N[C@H](C(=O)O)c6cc(O)cc(O)c6-c6cc4ccc6O)[C@H](O)c4ccc(c(Cl)c4)O5)O[C@H](CO)[C@@H](O)[C@@H]3O)O[C@@H](C)[C@H]2O)cc1
Output: 0.5

###

- Tested on: Streptococcus faecium ATCC 9790
- experiment_summary: agar-dilution MIC
- Format: cell-based
experimental_endpoint: MIC
# number then unit; no other words

Input: Look up MIC for this molecule: CC(C)C[C@H](C(=O)N[C@H]1C(=O)N[C@@H](CC(N)=O)C(=O)N[C@H]2C(=O)N[C@H]3C(=O)N[C@H](C(=O)N[C@H](C(=O)O)c4cc(O)cc(O)c4-c4cc3ccc4O)[C@H](O)c3ccc(c(Cl)c3)Oc3cc2cc(c3O[C@@H]2O[C@H](CO)[C@@H](O)[C@H](O)[C@H]2O[C@H]2C[C@](C)(NC(=O)CSc3ccccc3)[C@H](O)[C@H](C)O2)Oc2ccc(cc2Cl)[C@H]1O)N(C)C(=O)CSc1ccccc1
Output: 32 mg/L

Input: Look up MIC for this molecule: CN[C@H](CC(C)C)C(=O)N[C@H]1C(=O)N[C@@H](CC(N)=O)C(=O)N[C@H]2C(=O)N[C@H]3C(=O)N[C@H](C(=O)N[C@H](C(=O)O)c4cc(O)cc(O)c4-c4cc3ccc4O)[C@H](O)c3ccc(c(Cl)c3)Oc3cc2cc(c3O[C@@H]2O[C@H](CO)[C@@H](O)[C@H](O)[C@H]2O[C@H]2C[C@](C)(NC(=O)CC(C)c3cccs3)[C@H](O)[C@H](C)O2)Oc2ccc(cc2Cl)[C@H]1O (stereo partly shown)
Output: 2 mg/L

Input: Look up MIC for this molecule: CCCCCCCCc1ccc(C(=O)N(C)C(CC(C)C)C(=O)NC2C(=O)NC(CC(N)=O)C(=O)NC3C(=O)NC4C(=O)NC(C(=O)NC(C(=O)O)c5cc(O)cc(O)c5-c5cc4ccc5O)C(O)c4ccc(c(Cl)c4)Oc4cc3cc(c4OC3OC(CO)C(O)C(O)C3OC3CC(C)(N)C(O)C(C)O3)Oc3ccc(cc3Cl)C2O)cc1 (stereo not shown) [Compound 3, N^leu --[4-(n-octyl)benzoyl]vancomycin]
Output: 1 mg/L

Input: Look up MIC for this molecule: CCCCCCCCc1ccc(C(=O)N[C@@]2(C)C[C@H](O[C@H]3[C@H](Oc4c5cc6cc4Oc4ccc(cc4Cl)[C@@H](O)[C@@H](NC(=O)[C@@H](CC(C)C)NC)C(=O)N[C@@H](CC(N)=O)C(=O)N[C@H]6C(=O)N[C@H]4C(=O)N[C@H](C(=O)N[C@H](C(=O)O)c6cc(O)cc(O)c6-c6cc4ccc6O)[C@H](O)c4ccc(c(Cl)c4)O5)O[C@H](CO)[C@@H](O)[C@@H]3O)O[C@@H](C)[C@H]2O)cc1 [Compound 2, N^van --[4-(n-octyl)benzoyl]vancomycin]
Output: 0.125 mg/L
